Values compiled from patent US20240050571A1.

Biological target: MMP-2 (Homo sapiens (Human), UniProt P08253)
Sequence (P08253 110-660 limits assumed): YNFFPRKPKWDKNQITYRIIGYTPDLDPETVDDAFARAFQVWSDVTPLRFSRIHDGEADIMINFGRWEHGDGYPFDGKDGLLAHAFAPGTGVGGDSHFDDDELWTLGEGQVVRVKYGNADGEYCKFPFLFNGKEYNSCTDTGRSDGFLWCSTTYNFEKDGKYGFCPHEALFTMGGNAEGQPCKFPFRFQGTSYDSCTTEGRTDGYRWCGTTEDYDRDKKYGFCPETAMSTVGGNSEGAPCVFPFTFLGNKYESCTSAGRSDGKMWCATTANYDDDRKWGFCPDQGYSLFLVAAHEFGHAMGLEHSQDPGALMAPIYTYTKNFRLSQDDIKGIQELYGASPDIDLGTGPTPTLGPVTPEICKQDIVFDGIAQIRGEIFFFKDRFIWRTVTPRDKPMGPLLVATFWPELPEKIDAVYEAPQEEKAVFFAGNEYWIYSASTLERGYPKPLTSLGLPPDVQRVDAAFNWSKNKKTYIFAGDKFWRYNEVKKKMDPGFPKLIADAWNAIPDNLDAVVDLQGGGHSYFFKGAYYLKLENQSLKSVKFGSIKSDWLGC

compound | unit | IC50
COc1ccc(S(=O)(=O)N(CC(=O)NO)CC(C)C)cc1 [NNGH] | nM | 2.7
